Test system: Hs-578T
assay.info: NCI tumour cell line growth inhibition, 48 h
The source made the active and inactive calls. No stated cut-off is given here; in the data, active = GI50 up to about 1.1 µM and inactive = higher.
API: response.call in active, inactive

Prompt line: // param item: `NNC(=O)CSc1nnc(CCCCCCCCc2nnc(SCC(=O)NN)o2)o1` ; yields the recorded call
Response line: inactive

Prompt line: // param item: `Cc1cc(Cl)ccc1NC(=O)/C(Cl)=C(/Cl)C(=O)O` ; yields the recorded call
Response line: inactive

Prompt line: // param item: `CCCC(=O)Nc1cc(C(=O)N2C[C@H]3C[C@@]34C2=CC(=O)c2[nH]cc(C)c24)n(COC)c1` ; yields the recorded call
Response line: active

Prompt line: // param item: CC1CC(C)(C)CC(OCCN2CCCCC2)(c2ccccc2)C1 (centres undefined) ; yields the recorded call
Response line: inactive

Prompt line: // param item: `CC(=O)c1sc2n(C)c(=O)c3ccccc3[n+]2c1C` ; yields the recorded call
Response line: inactive

Prompt line: // param item: `COc1ccc2c(CCNS(=O)(=O)c3ccccc3)c(C(C)=O)[nH]c2c1` ; yields the recorded call
Response line: inactive

// data source = ChEMBL document CHEMBL1201862
